Entries annotated with measured pIC50
Tested on: VEGF
assay comment: Evaluation of VEGF protein secretion level (Human VEGF ELISA) in ARPE-19 cell medium under hypoxic conditions
Format: cell-based
particulars: ARPE-19 cells; pretreated 2 hours, 24 hours hypoxic conditions; secreted VEGF in medium supernatant by ELISA; concentration range reducing VEGF by 50% vs untreated control; read-out: IC50 VEGF
pIC50: −log10 of the molar value.

Some entries whose results are on file:
smiles representation: O=C(NCc1cc(F)cc(Nc2cccnc2)c1)c1ncnc2nc(C3CCCC3)[nH]c12
study system: VEGF
pIC50: 6.00 to 7.00
//
smiles representation: NC(=O)c1cccc(-n2cc(-c3cc(F)cc(CNC(=O)c4ncnc5nc(C6CCCC6)[nH]c45)c3)cn2)c1
study system: VEGF
pIC50: > 7.00
//
smiles representation: O=C(NCc1cc(F)cc(-c2cnn(CC(F)F)c2)c1)c1ncnc2nc(C3CCCC3)[nH]c12
study system: VEGF
pIC50: 6.00 to 7.00

Attention now turns to another entry.
# get_value(readout='pIC50', item= O=C(NCc1cc(F)cc(-c2cnn(CC(F)(F)F)c2)c1)c1ncnc2nc(C3CCCC3)[nH]c12 )
6.00 to 7.00
